Field: IC50. System: MALT1 (Homo sapiens). Provenance: assorted publications.

Examples from the recorded data:
C#Cc1cncc(N)c1-c1cc(Cl)c(C(=O)Nc2cnc(C(=O)NCC(F)(F)F)c(Cl)c2)cc1F | ≤ 10 nM
COc1ccc2cnn(C)c2c1N(C)S(=O)(=O)c1ccc(-n2cc(C(C)C)cn2)nc1 | < 400 nM
COc1ccc2cnn(C)c2c1NS(=O)(=O)c1ccc(-c2cnn3c2CCC3)nc1 | 1000 to 2500 nM
Cc1ccc(-c2ccc(S(=O)(=O)Nc3cccc4cnn(C)c34)cn2)cn1 | > 2500 nM
CO[C@]1(c2ccnc(-n3cc(S(=O)(=O)Nc4cccc5cnn(C)c45)cn3)c2)CCOC1 | > 2500 nM
Nc1c(Cl)ncc(Br)c1-c1cc(Cl)c(C(=O)Nc2cnc(-n3nccn3)c(C(F)(F)F)c2)cc1F | ≤ 10 nM

Task item: I would be grateful if you could share the reported IC50 for COc1ccc2cnn(C)c2c1NS(=O)(=O)c1ccc(-n2nc(C)c(C)c2C)nc1 .
Reply: < 400 nM

Task item: I would be grateful if you could share the reported IC50 for Nc1cc(F)ccc1-c1cc(Cl)c(C(=O)Nc2cnc(C(=O)NCC3CC(F)(F)C3)c(Cl)c2)cc1F .
Reply: 10 to 100 nM

###

Field: pIC50. System: MALT1 (Homo sapiens, UniProt Q9UDY8). Provenance: assorted publications.
Sequence (Q9UDY8 whole entry): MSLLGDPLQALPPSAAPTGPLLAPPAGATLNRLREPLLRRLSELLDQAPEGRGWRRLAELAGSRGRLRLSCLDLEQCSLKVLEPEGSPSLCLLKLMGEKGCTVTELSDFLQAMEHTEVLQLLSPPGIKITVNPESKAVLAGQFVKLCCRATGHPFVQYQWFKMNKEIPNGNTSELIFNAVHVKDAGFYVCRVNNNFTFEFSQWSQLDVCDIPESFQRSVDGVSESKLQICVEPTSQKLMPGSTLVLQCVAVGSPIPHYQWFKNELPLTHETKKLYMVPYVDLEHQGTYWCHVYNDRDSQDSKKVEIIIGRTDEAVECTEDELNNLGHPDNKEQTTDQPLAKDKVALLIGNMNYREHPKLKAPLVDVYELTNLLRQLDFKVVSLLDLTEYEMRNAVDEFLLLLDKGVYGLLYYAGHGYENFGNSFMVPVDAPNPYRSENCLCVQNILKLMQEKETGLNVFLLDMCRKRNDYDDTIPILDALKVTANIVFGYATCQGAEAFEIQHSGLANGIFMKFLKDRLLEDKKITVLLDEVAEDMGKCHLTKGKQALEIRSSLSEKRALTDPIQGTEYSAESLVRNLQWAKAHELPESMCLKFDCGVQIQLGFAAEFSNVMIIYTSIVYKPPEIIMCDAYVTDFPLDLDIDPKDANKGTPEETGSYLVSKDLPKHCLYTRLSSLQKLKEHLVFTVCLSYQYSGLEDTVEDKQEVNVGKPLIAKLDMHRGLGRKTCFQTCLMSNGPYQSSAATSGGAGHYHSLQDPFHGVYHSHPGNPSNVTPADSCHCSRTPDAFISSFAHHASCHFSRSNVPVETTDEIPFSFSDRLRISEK
pIC50: −log10 of the molar value.

O=C(Nc1cnc(-n2nccn2)c(C(F)(F)F)c1)c1cc(F)c(-c2c(Br)cncc2[N+](=O)[O-])cc1Cl | 7.00 to 8.00
C#Cc1cnc(C#N)c(N)c1-c1cc(Cl)c(C(=O)Nc2cnc(-n3nccn3)c(C(F)(F)F)c2)cc1F | ≥ 8.00
[2H]C([2H])([2H])n1ncc2ccc(OC)c(NS(=O)(=O)c3ccc(-n4cc(C)cn4)nc3)c21 | > 6.40
CN1C[C@@H](n2cc(S(=O)(=O)Nc3cccc4cnn(C)c34)cn2)CCC1=O | < 5.60

Task item: For the record CCc1ccc2cnn(C)c2c1NS(=O)(=O)c1cnn(-c2cc(C(C)(C)O)ccn2)c1 , what value of pIC50 is listed for MALT1 (Homo sapiens, UniProt Q9UDY8)?
Reply: ≥ 6.40

Task item: For the record Cn1ncc2cccc(NS(=O)(=O)c3cnn(-c4cc([C@@]5(F)CCOC5)ccn4)c3)c21 , what value of pIC50 is listed for MALT1 (Homo sapiens, UniProt Q9UDY8)?
Reply: < 5.60

Task item: For the record COc1ccc2cnn(C)c2c1NS(=O)(=O)c1cnn(-c2cc(N3CC[C@H](F)C3)ccn2)c1 , what value of pIC50 is listed for MALT1 (Homo sapiens, UniProt Q9UDY8)?
Reply: < 5.60

Task item: For the record COc1cc(NS(=O)(=O)c2cnn(-c3ccnc(C(F)(F)F)c3)c2)c2c(cnn2C)c1 , what value of pIC50 is listed for MALT1 (Homo sapiens, UniProt Q9UDY8)?
Reply: < 5.60

Task item: For the record Cn1ncc2ccc(F)c(NS(=O)(=O)c3cnn(-c4cc(C(F)(F)F)ccn4)c3)c21 , what value of pIC50 is listed for MALT1 (Homo sapiens, UniProt Q9UDY8)?
Reply: 6.00 to 6.40

Task item: For the record Cn1ncc2cccc(NS(=O)(=O)c3cnn(-c4cc(C5CCO5)ccn4)c3)c21 (stereo not drawn) , what value of pIC50 is listed for MALT1 (Homo sapiens, UniProt Q9UDY8)?
Reply: < 5.60

Task item: For the record CCN(c1c(OC)ccc2cnn(C)c12)S(=O)(=O)c1cnn(-c2ccnc(C(F)(F)F)c2)c1 , what value of pIC50 is listed for MALT1 (Homo sapiens, UniProt Q9UDY8)?
Reply: ≥ 6.40

Task item: For the record Cn1ncc2cccc(NS(=O)(=O)c3ccc(-c4cncc(S(C)(=O)=O)c4)nc3)c21 , what value of pIC50 is listed for MALT1 (Homo sapiens, UniProt Q9UDY8)?
Reply: < 5.60

###

Field: IC50. System: MALT1 (Homo sapiens). Provenance: assorted publications.

Task item: I would be grateful if you could share the reported IC50 for CN1CCC[C@@H](n2cc(S(=O)(=O)Nc3cccc4cnn(C)c34)cn2)C1 .
Reply: > 2500 nM

Task item: I would be grateful if you could share the reported IC50 for COc1nn(C)cc1-c1ccc(S(=O)(=O)Nc2cccc3cnn(C)c23)cn1 .
Reply: > 2500 nM

Task item: I would be grateful if you could share the reported IC50 for COc1ccc2cnn(C)c2c1NS(=O)(=O)c1ccc(-n2cc([N+](=O)[O-])cn2)nc1 .
Reply: < 400 nM

Task item: I would be grateful if you could share the reported IC50 for COCCn1ncc2cccc(NS(=O)(=O)c3cnn(-c4cc(C5CC5)ccn4)c3)c21 .
Reply: > 2500 nM

Task item: I would be grateful if you could share the reported IC50 for Cn1ncc2cccc(NS(=O)(=O)c3cnn(-c4cc(N5CC(C)(C(N)=O)C5)ccn4)c3)c21 .
Reply: > 2500 nM

Task item: I would be grateful if you could share the reported IC50 for Cn1ncc2cccc(NS(=O)(=O)c3ccc(-c4ccc[nH]4)nc3)c21 .
Reply: > 2500 nM

Task item: I would be grateful if you could share the reported IC50 for Cc1ccncc1-c1ccc(S(=O)(=O)Nc2cccc3cnn(C)c23)cn1 .
Reply: > 2500 nM

Task item: I would be grateful if you could share the reported IC50 for Cn1ncc2cccc(NS(=O)(=O)c3ccc(-c4cnn(C(F)F)c4)nc3)c21 .
Reply: > 2500 nM

Task item: I would be grateful if you could share the reported IC50 for CN1CC(F)(c2ccnc(-n3cc(S(=O)(=O)Nc4cccc5cnn(C)c45)cn3)c2)C1 .
Reply: > 2500 nM

Task item: I would be grateful if you could share the reported IC50 for COC[C@@](C)(OC)c1ccnc(-n2cc(S(=O)(=O)Nc3cccc4cnn(C)c34)cn2)c1 .
Reply: > 2500 nM

Task item: I would be grateful if you could share the reported IC50 for C#Cc1cncc(N)c1-c1cc(Cl)c(C(=O)Nc2cnc(-n3nccn3)c(C(F)(F)F)c2)cc1F .
Reply: ≤ 10 nM

Task item: I would be grateful if you could share the reported IC50 for C#Cc1ccc2cnn(C)c2c1NS(=O)(=O)c1cnn(-c2ccnc(C(F)(F)F)c2)c1 .
Reply: ≤ 400 nM

Task item: I would be grateful if you could share the reported IC50 for Cc1cc(-c2ccc(F)cc2N)c(F)cc1C(=O)Nc1cnc(-n2nccn2)c(Cl)c1 .
Reply: ≤ 10 nM

Task item: I would be grateful if you could share the reported IC50 for C#Cc1cncc(N)c1-c1cc(Cl)c(C(=O)Nc2cnc(C(=O)NCC(F)F)c(Cl)c2)cc1F .
Reply: ≤ 10 nM

Task item: I would be grateful if you could share the reported IC50 for COC[C@](C)(OC)c1ccnc(-n2cc(S(=O)(=O)Nc3cccc4cnn(C)c34)cn2)c1 .
Reply: > 2500 nM
